- Test system: MYB mRNA
- assay.remarks: RT-qPCR splicing assay, MYB canonical junction (CJ) and alternative junction (AJ) mRNA
- Type: cell-based, human
- test.parameters: Homo sapiens; Table 5 panel; canonical junction qPCR; compound concentration having 50% response in CJ decrease; read-out: MYB IC50 (decrease in CJ mRNA levels)

compound	IC50
Cc1cn2cc(-c3cc(F)c4c(=O)n([C@H]5CCNC5)ccc4c3)cc(F)c2n1 (single isomer, unassigned)	< 100 nM
Cc1cn2cc(-c3cc(F)c4c(=O)n([C@H]5CCNC[C@@H]5O)cnc4c3)cc(F)c2n1	100 to 1000 nM
CN1CCC(Nc2ccc3c(=O)n(-c4ccc5cn(C)nc5c4)cnc3c2)CC1	> 10000 nM
Cc1cn2nc(-c3cc(F)c4c(=O)n(C5CCNCC5)cnc4c3)cc2c(C)n1	< 100 nM
Cc1cn2nc(-c3ccc4c(=O)n(C5CCNCC5)ccc4c3)cc(OCc3ccccc3)c2n1	100 to 1000 nM

* * *

- Tested on: HTT mRNA
- assay.remarks: RT-qPCR splicing assay, HTT canonical junction (CJ) and alternative junction (AJ) mRNA
- Assay type: cell-based, human
- test.parameters: Homo sapiens, increase in HTT alternative junction (AJ) mRNA, RT-qPCR; read-out: HTT AJ AC50
assay.readout: AC50

molecule	system.name	assay.readout	recorded.value
CNc1cc(-c2cc(C)c3nc(C)cn3n2)cc2ccn([C@@H]3CCNC3)c(=O)c12	HTT mRNA	AC50	> 10000 nM
Cc1cn2cc(-c3cc(F)c4c(=O)n(C5CCNCC5(F)F)cnc4c3)cc(F)c2n1 (centres unmarked)	HTT mRNA	AC50	1000 to 10000 nM
Cc1ncc(-c2ccc3c(=O)n(C4CCNCC4)cnc3c2)cn1	HTT mRNA	AC50	1000 to 10000 nM
Cn1cc2cc(-c3ccc4c(c3)CCN(C3CCNCC3)C4=O)cc(F)c2n1	HTT mRNA	AC50	> 10000 nM
Cn1cc2nc(-c3ccc4c(=O)n(C5CCNC6(CC6)C5)ncc4c3)ccc2n1 (centres unmarked)	HTT mRNA	AC50	100 to 1000 nM
Cc1cn2cc(-c3ccc4c(c3)CCN(C3CCNCC3)C4=O)c(C)cc2n1	HTT mRNA	AC50	1000 to 10000 nM
Cc1cc(-c2ccc3c(=O)n(C4CCNCC4)ncc3c2)cc2cn(C)nc12	HTT mRNA	AC50	100 to 1000 nM
Cc1cn2cc(-c3cc(F)c4c(=O)n([C@H]5CCNC[C@@H]5F)cnc4c3)cc(F)c2n1 (relative stereo)	HTT mRNA	AC50	100 to 1000 nM

* * *

- System: HTT mRNA
- assay.remarks: RT-qPCR splicing assay, HTT canonical junction (CJ) and alternative junction (AJ) mRNA
- Format: cell-based, human
- test.parameters: Homo sapiens; Table 5 panel; canonical junction qPCR; compound concentration having 50% response in CJ decrease; read-out: HTT IC50 (decrease in CJ mRNA levels)
pIC50: −log10 of the molar value.
pIC50 by entry:

molecule.smiles	system.name	pIC50
Cc1cn2nc(-c3ccc4c(c3)CCN(C3CCNCC3)C4=O)nc2c(C)n1	HTT mRNA	5.00 to 6.00
COc1cc2c(=O)n(C3CCNCC3)ccc2cc1-c1cc(C)c2nc(C)cn2n1	HTT mRNA	< 5.00
Cn1cc2cc(-c3cc(F)c4c(=O)n(C5CCNCC5)cnc4c3)c(F)cc2n1	HTT mRNA	5.00 to 6.00
